Target: T1, EsCas13d, nuclease-dead (Eubacterium siraeum, UniProt B0MS50, R295A;H300A;R849A;H854A)
T1 sequence: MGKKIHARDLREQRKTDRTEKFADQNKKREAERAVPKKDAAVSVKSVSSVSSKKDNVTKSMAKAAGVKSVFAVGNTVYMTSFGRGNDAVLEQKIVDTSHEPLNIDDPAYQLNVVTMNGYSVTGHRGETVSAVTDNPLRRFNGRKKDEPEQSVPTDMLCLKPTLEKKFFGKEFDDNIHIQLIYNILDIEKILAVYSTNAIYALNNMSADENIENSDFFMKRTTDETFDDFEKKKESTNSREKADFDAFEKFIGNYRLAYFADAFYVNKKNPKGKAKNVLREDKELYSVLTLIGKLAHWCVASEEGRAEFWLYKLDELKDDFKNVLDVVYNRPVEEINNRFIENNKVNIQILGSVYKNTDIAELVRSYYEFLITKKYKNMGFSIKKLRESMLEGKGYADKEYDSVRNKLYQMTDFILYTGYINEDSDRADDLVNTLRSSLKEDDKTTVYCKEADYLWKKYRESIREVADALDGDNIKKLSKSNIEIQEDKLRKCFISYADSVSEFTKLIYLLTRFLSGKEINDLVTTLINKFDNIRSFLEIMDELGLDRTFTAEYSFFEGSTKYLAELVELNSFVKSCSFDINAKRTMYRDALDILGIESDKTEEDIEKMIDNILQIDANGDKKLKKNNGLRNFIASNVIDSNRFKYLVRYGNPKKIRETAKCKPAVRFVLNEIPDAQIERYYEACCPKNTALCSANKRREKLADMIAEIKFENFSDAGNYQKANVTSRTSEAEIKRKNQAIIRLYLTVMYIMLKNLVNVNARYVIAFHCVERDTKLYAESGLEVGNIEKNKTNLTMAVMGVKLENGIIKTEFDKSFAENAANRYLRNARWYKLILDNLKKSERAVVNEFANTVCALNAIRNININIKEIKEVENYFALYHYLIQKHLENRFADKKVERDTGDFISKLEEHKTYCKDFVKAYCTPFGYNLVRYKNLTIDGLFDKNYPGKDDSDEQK
Assay: crRNA (strand 1, pre-loaded); Mg2+; 40 mM Tris-HCl pH 7.5, 150 mM NaCl, 6 mM MgCl2, 1 mM DTT, 0.1% Tween-20, 0.2 mg/ml BSA; 25 C; 10 min per concentration, then washed
Details: tags: His6-TwinStrep-SUMO cleaved; N-terminal SNAP kept (SNAP-Surface 488); label: 3' end held by stalled T7 RNA polymerase
Listing: Kd of selected binders

Some solved cases for reference:
target 2 MT 5'PFS GCC 3'PFS CAG (mixed) RNA 1: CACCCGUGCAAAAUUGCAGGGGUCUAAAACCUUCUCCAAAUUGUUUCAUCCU RNA 2: GGGAAUGGAUCCACAUCUACGAAUUCGCCAGGAUGAAACAAUUUGGAGAAGCAGAGAUCGGAAGAGCACACGU: 9.4 nM
target 1 insC 3' of 13,insA 3' of 5 (mixed) RNA 1: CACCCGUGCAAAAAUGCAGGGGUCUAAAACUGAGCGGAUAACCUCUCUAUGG RNA 2: GGGAAUGGAUCCACAUCUACGAAUUCGUACCAUAGAGAGCGUUAUCCGACUCACCGAGAUCGGAAGAGCACACGU: 6.7 nM
target 1 MT 5'PFS CCU 3'PFS CAG (mixed) RNA 1: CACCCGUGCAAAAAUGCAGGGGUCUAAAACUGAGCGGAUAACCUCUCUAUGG RNA 2: GGGAAUGGAUCCACAUCUACGAAUUCCCUCCAUAGAGAGGUUAUCCGCUCACAGAGAUCGGAAGAGCACACGU: ~26 nM
target 1 insU 3' of 21,insU 3' of 4 (mixed) RNA 1: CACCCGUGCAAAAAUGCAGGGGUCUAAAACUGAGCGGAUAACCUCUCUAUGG RNA 2: GGGAAUGGAUCCACAUCUACGAAUUCGUACCUAUAGAGAGGUUAUCCGCUUCACCGAGAUCGGAAGAGCACACGU: 21.8 nM
target 3 U8G,U22C (mixed) RNA 1: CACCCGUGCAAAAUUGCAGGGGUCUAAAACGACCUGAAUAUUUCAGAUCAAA RNA 2: GGGAAUGGAUCCACAUCUACGAAUUCGUUCUUGAUCUGAAAUAGUCAGGUCUGCAGAUCGGAAGAGCACACGU: 90 nM

Query: Entry under review: target 3 insA 3' of 20,insC 3' of 20 (mixed) RNA 1: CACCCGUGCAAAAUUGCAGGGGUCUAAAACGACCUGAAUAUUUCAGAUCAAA RNA 2: GGGAAUGGAUCCACAUCUACGAAUUCGUUUUUACGAUCUGAAAUAUUCAGGUCUGCAGAUCGGAAGAGCACACGU . Reported Kd?
Result: ~110 nM

Query: Queued: target 2 MT 5'PFS GUA 3'PFS AGU (mixed) RNA 1: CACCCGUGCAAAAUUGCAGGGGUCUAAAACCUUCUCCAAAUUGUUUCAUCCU RNA 2: GGGAAUGGAUCCACAUCUACGAAUUCGUAAGGAUGAAACAAUUUGGAGAAGAGUAGAUCGGAAGAGCACACGU
Result: 12.4 nM

Query: What do we get for target 1 MT 5'PFS GGC 3'PFS AUU (mixed) RNA 1: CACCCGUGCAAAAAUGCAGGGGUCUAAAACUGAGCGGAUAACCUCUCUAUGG RNA 2: GGGAAUGGAUCCACAUCUACGAAUUCGGCCCAUAGAGAGGUUAUCCGCUCAAUUAGAUCGGAAGAGCACACGU ?
Result: 19.6 nM

Query: Repeat for the following binder: target 1 MT 5'PFS GUU 3'PFS UCG (mixed) RNA 1: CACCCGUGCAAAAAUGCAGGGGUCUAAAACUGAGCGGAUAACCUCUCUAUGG RNA 2: GGGAAUGGAUCCACAUCUACGAAUUCGUUCCAUAGAGAGGUUAUCCGCUCAUCGAGAUCGGAAGAGCACACGU
Result: 18.5 nM
